target: human alpha2C receptors (Homo sapiens); experiment: Determination of alpha2C antagonistic activity in vitro (FLIPR calcium assay)
Sequence (P18825 whole entry): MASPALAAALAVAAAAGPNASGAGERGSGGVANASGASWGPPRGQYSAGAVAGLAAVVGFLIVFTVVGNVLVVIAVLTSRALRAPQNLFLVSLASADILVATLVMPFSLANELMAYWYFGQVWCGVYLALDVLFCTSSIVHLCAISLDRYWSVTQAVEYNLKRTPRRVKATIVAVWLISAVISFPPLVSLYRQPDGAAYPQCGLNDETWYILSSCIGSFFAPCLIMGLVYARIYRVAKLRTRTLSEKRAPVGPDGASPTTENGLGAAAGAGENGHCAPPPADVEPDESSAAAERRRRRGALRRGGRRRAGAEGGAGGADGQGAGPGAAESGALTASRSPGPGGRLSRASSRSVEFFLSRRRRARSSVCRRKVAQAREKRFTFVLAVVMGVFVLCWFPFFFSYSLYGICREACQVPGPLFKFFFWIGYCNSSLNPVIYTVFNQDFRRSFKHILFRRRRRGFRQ
Structures can show the parent of a compound that is named as a salt.
Provide the reported pIC50 of each item.
Scale note: pIC50 = -log10(concentration in M).

pIC50 measured on O=C1c2ncncc2CN1[C@H]1CCCN(C[C@H]2COc3ccccc3O2)C1 = 6.59

pIC50 measured on O=C1C=C(c2ccccc2)CN1[C@H]1CCCN(C[C@H]2COc3ccccc3O2)C1 = 8.75

pIC50 measured on O=C1N(c2ccccc2)CCN1[C@H]1CCCN(C[C@H]2COc3ccccc3O2)C1 = 7.52

pIC50 measured on O=C1CN(CC2CC2)C(=O)N1[C@H]1CCCN(C[C@H]2COc3ccccc3O2)C1 = 8.90

pIC50 measured on O=C1c2cccc(F)c2CN1[C@H]1CCCN(C[C@H]2COc3ccccc3O2)C1 [example 57, hydrochloride] = 8.81

pIC50 measured on CC1CCN([C@H]2CCCN(C[C@H]3COc4ccccc4O3)C2)C1=O (stereo partly drawn) [example 97] = 9.00

pIC50 measured on C[C@H](c1ccccc1)N1C(=O)C(=O)N([C@H]2CCCN(C[C@H]3COc4ccccc4O3)C2)C1=O = 8.93

pIC50 measured on C[C@H]1C(=O)N([C@H]2CCCN(C[C@H]3COc4ccccc4O3)C2)C(=O)[C@@H]1C = 8.75

pIC50 measured on CC1(C)CCN([C@H]2CCCN(C[C@H]3COc4ccccc4O3)C2)S1(=O)=O = 8.21

pIC50 measured on CSc1ncc2c(n1)C(=O)N([C@H]1CCCN(C[C@H]3COc4ccccc4O3)C1)C2 = 6.29

pIC50 measured on CN1CCN([C@H]2CCCN(C[C@H]3COc4ccccc4O3)C2)C1=O = 9.11

pIC50 measured on Cc1nc2cccnc2n1[C@H]1CCCN(C[C@H]2COc3ccccc3O2)C1 = 10.92

pIC50 measured on O=C1c2ccc(F)cc2CN1[C@H]1CCCN(C[C@H]2COc3ccccc3O2)C1 [example 58, hydrochloride] = 9.52

pIC50 measured on CN(C)Cc1nc2ccc(Cl)cc2n1[C@H]1CCCN(C[C@H]2COc3ccccc3O2)C1 = 7.16

pIC50 measured on CN(C)C(=O)CN1C(=O)N([C@H]2CCCN(C[C@H]3COc4ccccc4O3)C2)C(=O)C12CC2 = 8.83

---

biological target: human alpha2A receptors (Homo sapiens, UniProt P08913); assay: cell-based
Sequence (P08913 whole entry): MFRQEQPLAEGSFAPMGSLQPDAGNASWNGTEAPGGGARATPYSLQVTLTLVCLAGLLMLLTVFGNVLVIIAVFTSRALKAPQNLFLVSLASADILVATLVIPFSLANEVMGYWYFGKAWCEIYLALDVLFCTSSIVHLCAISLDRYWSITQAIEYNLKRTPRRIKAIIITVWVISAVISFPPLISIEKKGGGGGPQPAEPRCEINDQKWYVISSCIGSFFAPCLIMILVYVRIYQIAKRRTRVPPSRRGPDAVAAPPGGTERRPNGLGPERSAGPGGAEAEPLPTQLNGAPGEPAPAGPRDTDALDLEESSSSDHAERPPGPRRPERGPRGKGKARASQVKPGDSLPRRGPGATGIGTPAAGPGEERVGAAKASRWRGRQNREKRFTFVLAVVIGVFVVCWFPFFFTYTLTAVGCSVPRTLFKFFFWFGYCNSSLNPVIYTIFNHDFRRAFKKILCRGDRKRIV
QUANTITY KIND: Kb

Kb measured on CC1(C)CCN([C@H]2CCCN(C[C@H]3COc4ccccc4O3)C2)S1(=O)=O [example 162] = > 449 nM

Kb measured on CN1CCCN([C@H]2CCCN(C[C@H]3COc4ccccc4O3)C2)C1=O [example 54] = > 449 nM

Kb measured on CC(C)C1CN([C@H]2CCCN(C[C@H]3COc4ccccc4O3)C2)C(=O)O1 (stereo partly drawn) [example 19] = > 449 nM

Kb measured on C[C@H](c1ccccc1)N1C(=O)C(=O)N([C@H]2CCCN(C[C@H]3COc4ccccc4O3)C2)C1=O [example 128] = 399 nM

Kb measured on CCC1(CC)OC(=O)N([C@H]2CCCN(C[C@H]3COc4ccccc4O3)C2)C1=O [example 5] = 58 nM

Kb measured on CNCc1nc2ccc(Cl)cc2n1[C@H]1CCCN(C[C@H]2COc3ccccc3O2)C1 [example 153] = > 449 nM
